Origin of measurements: the supplement of paper PMC10065799

- subject.of.test: Grb2 SH2 (UniProt P62993)
- Sequence (P62993 whole entry, looked up): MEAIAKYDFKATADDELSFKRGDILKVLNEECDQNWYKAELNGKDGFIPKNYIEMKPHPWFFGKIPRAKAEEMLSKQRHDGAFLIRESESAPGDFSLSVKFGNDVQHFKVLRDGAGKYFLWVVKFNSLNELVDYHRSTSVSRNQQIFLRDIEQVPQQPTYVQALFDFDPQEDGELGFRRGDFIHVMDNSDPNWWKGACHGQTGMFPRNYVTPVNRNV
- protocol.summary: SH2 binding enrichment of the phosphorylated peptide, bacterial display (enrichment ratio); higher = better substrate or ligand; peptides without Tyr show the background
Label Fulfilled when SH2 binding enrichment is at or above 0.8; anything below gets Not fulfilled.

- sequence.input: "IIRQLYLKWHP [SACS_Y4333_R4331Q]"
  subject.of.test: "Grb2 SH2 (UniProt P62993)"
  label.class: "Fulfilled"
- sequence.input: "LFPANYVAPMT [GRAP2_Y324]"
  subject.of.test: "Grb2 SH2 (UniProt P62993)"
  label.class: "Fulfilled"
- sequence.input: "RVQQIYSDSDL [MIB1_Y376]"
  subject.of.test: "Grb2 SH2 (UniProt P62993)"
  label.class: "Fulfilled"
- sequence.input: "GFSDPYVKAFL [SYT3_Y470_S474F]"
  subject.of.test: "Grb2 SH2 (UniProt P62993)"
  label.class: "Fulfilled"
- sequence.input: "ICGVSYDEYRY [CFTR_Y512_F508C]"
  subject.of.test: "Grb2 SH2 (UniProt P62993)"
  label.class: "Not fulfilled"
- sequence.input: "EKKKKYMLPLD [DNM2_Y563_E560K]"
  subject.of.test: "Grb2 SH2 (UniProt P62993)"
  label.class: "Not fulfilled"
- sequence.input: "KRTFEYEAEKN [DENND2B_Y396_D399E]"
  subject.of.test: "Grb2 SH2 (UniProt P62993)"
  label.class: "Fulfilled"
- sequence.input: "LGLDECLDKLK [FMNL2_Y352_Y352C]"
  subject.of.test: "Grb2 SH2 (UniProt P62993)"
  label.class: "Fulfilled"
- sequence.input: "YAGRDYSLDEF [MYOF_Y1705_G1701A]"
  subject.of.test: "Grb2 SH2 (UniProt P62993)"
  label.class: "Not fulfilled"
- sequence.input: "GSIQQYTFKQE [PRG4_Y1271_I1272T_YF]"
  subject.of.test: "Grb2 SH2 (UniProt P62993)"
  label.class: "Fulfilled"

###

- subject.of.test: Jak2 (UniProt O60674)
- Sequence (O60674 whole entry, looked up): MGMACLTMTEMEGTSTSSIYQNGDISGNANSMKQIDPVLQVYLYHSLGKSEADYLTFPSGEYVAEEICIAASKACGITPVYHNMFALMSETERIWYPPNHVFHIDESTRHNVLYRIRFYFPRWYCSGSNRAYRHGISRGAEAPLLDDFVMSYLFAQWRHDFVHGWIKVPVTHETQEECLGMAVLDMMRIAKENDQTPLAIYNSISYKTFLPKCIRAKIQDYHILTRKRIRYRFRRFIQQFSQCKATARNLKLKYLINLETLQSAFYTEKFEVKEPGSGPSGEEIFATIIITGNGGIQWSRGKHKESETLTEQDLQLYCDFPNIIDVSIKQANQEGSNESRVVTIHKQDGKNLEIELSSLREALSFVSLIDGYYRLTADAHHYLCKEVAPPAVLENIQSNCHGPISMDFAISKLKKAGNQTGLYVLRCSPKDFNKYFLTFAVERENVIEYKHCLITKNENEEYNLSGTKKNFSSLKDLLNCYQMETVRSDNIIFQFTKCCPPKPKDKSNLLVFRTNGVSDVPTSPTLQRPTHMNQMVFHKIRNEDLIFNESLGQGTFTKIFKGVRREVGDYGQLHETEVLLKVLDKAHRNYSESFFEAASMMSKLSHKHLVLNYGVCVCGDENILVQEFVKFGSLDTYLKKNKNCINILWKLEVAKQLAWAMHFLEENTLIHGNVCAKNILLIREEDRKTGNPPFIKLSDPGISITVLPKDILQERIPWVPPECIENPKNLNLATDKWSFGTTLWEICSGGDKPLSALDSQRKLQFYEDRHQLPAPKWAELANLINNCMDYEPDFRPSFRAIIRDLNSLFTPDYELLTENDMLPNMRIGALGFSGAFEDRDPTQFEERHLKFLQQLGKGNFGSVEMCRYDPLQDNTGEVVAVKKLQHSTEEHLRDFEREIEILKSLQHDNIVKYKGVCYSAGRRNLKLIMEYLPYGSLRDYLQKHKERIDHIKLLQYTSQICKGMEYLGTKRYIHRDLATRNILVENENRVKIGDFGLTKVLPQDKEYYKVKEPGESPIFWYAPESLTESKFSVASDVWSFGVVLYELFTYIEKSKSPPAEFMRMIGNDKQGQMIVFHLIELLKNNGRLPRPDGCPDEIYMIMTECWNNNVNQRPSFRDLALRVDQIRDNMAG
- protocol.summary: phosphorylation enrichment, bacterial display (enrichment ratio); higher = better substrate or ligand; peptides without Tyr show the background
Below, each of the sequences is paired with its reported phosphorylation enrichment value.

- sequence.input: "SQQTFYPVSNM [ABCD1_Y181_R182P_YF]"
  subject.of.test: "Jak2 (UniProt O60674)"
  phosphorylation enrichment: 0.598
- sequence.input: "EMTAEYTCTRK [ACAD9_Y325_A326T]"
  subject.of.test: "Jak2 (UniProt O60674)"
  phosphorylation enrichment: 0.757
- sequence.input: "KDPPDYKFQPR [SOX9_Y172_H169P_YF]"
  subject.of.test: "Jak2 (UniProt O60674)"
  phosphorylation enrichment: 0.719
- sequence.input: "ENAGYYFQVSA"
  subject.of.test: "Jak2 (UniProt O60674)"
  phosphorylation enrichment: 1.43
- sequence.input: "HAVFVYDICHV [TWNK_Y508_YF]"
  subject.of.test: "Jak2 (UniProt O60674)"
  phosphorylation enrichment: 1.65
- sequence.input: "AVVEPYNSILT [TUBA1A_Y185]"
  subject.of.test: "Jak2 (UniProt O60674)"
  phosphorylation enrichment: 0.802
- sequence.input: "KTNVSYFGALD [CACNB4_Y103_C104F]"
  subject.of.test: "Jak2 (UniProt O60674)"
  phosphorylation enrichment: 0.653

###

Reported phosphorylation enrichment values for the following sequences.
- subject.of.test: Jak2 (UniProt O60674)
- protocol.summary: phosphorylation enrichment, bacterial display (enrichment ratio); higher = better substrate or ligand; peptides without Tyr show the background

- sequence.input: "HHIDYYKETTN [FGFR1_Y654_K656E]"
  phosphorylation enrichment: 0.979
- sequence.input: "IGEVVYQRAVM [GRIN2A_Y502]"
  phosphorylation enrichment: 0.688
- sequence.input: "RRYVYYYSYLL [PTEN_Y177]"
  phosphorylation enrichment: 0.986

###

- subject.of.test: c-Src SH2
- protocol.summary: SH2 binding enrichment of the phosphorylated peptide, bacterial display (enrichment ratio); higher = better substrate or ligand; peptides without Tyr show the background
We'd kindly ask you to apply these SH2 binding enrichment classes: bottom end: < 0.5; midrange: ≥ 0.5 and < 0.7; top end: ≥ 0.7

- sequence.input: "IHRWVYPLTPE [EIF2B5_Y319_R315H]"
  label.class: "top end"
- sequence.input: "EAVKNYTEKRG [PBRM1_Y672_D674E]"
  label.class: "bottom end"
- sequence.input: "IKKLIYVHLVI [JAGN1_Y42]"
  label.class: "midrange"
- sequence.input: "FTDPFYDFEIE [ZC3H18_Y372_A368T_YF]"
  label.class: "bottom end"
- sequence.input: "GSRGKYFSGFR [ATM_Y332_S333F]"
  label.class: "midrange"
- sequence.input: "FFRCHYPLTTL [TNS4_Y644_R642C]"
  label.class: "top end"
- sequence.input: "EFKDAYKFAAD [BRDT_Y335_YF]"
  label.class: "bottom end"
- sequence.input: "FCRHNYGVGES [HLA-DRB1_Y112_V115G_YF]"
  label.class: "top end"
- sequence.input: "GYDHSYYFIAT [ESD_Y262]"
  label.class: "top end"
- sequence.input: "IMAYFYMCDSA [CASD1_Y382_R386S]"
  label.class: "midrange"
- sequence.input: "AVVEPYNSILT [TUBA1A_Y185]"
  label.class: "top end"
- sequence.input: "KDFNKYVAFIE [KDM4B_Y31_YF]"
  label.class: "top end"
- sequence.input: "LINPKYSVEEE [PCDH19_Y27_L25P]"
  label.class: "top end"
- sequence.input: "GHNDVYISKHV [GRIN2A_Y1423_E1426K]"
  label.class: "bottom end"
- sequence.input: "PNLILYGDFRQ [MYH7_Y715_R712L]"
  label.class: "bottom end"
- sequence.input: "QVMDGYPMPIG [MMP14_Y353]"
  label.class: "midrange"
- sequence.input: "LRRREYQRQDY [PRKRIP1_Y90]"
  label.class: "bottom end"

###

- subject.of.test: Jak2 (UniProt O60674)
- protocol.summary: phosphorylation enrichment, bacterial display (enrichment ratio); higher = better substrate or ligand; peptides without Tyr show the background
Note to self: class labels come from recorded phosphorylation enrichment, ranges listed here: band 1: < 0.8; band 2: ≥ 0.8 and < 1; band 3: ≥ 1

- sequence.input: "TSNQEYLYLSM [FGFR1_Y766_D768Y]"
  label.class: "band 3"
- sequence.input: "RTMPDYTSFNT [EPHB2_Y912_I909M]"
  label.class: "band 1"
- sequence.input: "SAVTGYRVDVI [FN1_Y937]"
  label.class: "band 1"
- sequence.input: "ALVFLSFCIIF [SIGLEC12_Y494_Y494S]"
  label.class: "band 2"
- sequence.input: "ISSLPYMKMIF [SLC4A11_Y853_M848I]"
  label.class: "band 3"
- sequence.input: "QDGYSYPSRQM [LDLR_Y847]"
  label.class: "band 3"
- sequence.input: "DLKFHYDNTAG [KDR_Y1214_P1210L]"
  label.class: "band 2"
- sequence.input: "HNLNYYKKTTN [FGFR3_Y648_D646N]"
  label.class: "band 1"
- sequence.input: "PSPMPYAFCQM [FOXL2_Y215_S217F]"
  label.class: "band 3"
- sequence.input: "FGGRDYSLDEF [MYOF_Y1705_YF]"
  label.class: "band 2"
- sequence.input: "RLDGEYFTLQI [TP53_Y327_P322R]"
  label.class: "band 3"
- sequence.input: "LNARHYGGLTG [PGAM2_Y92_E89A]"
  label.class: "band 1"
- sequence.input: "LDFPEYDGVDR [CASQ1_Y43]"
  label.class: "band 3"
- sequence.input: "TQNAVYSAANY [DDX5_Y535_G533A]"
  label.class: "band 1"
- sequence.input: "KVKPIYFHTQG [AR_Y916]"
  label.class: "band 1"

###

- subject.of.test: Hck (UniProt P08631)
- Sequence (P08631 whole entry, looked up): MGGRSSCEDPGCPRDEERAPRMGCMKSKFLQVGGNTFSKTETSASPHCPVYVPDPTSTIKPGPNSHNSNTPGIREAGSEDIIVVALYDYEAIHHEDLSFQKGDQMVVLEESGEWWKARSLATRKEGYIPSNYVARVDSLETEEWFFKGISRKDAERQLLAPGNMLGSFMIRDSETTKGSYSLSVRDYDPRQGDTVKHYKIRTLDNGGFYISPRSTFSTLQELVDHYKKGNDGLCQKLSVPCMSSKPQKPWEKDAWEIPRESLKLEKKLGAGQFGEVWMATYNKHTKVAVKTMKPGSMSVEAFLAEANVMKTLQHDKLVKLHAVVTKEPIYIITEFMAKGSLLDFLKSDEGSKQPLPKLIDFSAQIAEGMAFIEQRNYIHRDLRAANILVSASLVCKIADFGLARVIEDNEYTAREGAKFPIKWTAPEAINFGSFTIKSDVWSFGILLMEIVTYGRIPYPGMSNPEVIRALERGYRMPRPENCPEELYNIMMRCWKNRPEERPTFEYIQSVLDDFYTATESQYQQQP
- protocol.summary: phosphorylation enrichment, bacterial display (enrichment ratio); higher = better substrate or ligand; peptides without Tyr show the background

- sequence.input: "IMAYFYMCDSA [CASD1_Y382_R386S]"
  subject.of.test: "Hck (UniProt P08631)"
  phosphorylation enrichment: 0.51
- sequence.input: "LNPFIYSLRNR [OR1A1_Y288]"
  subject.of.test: "Hck (UniProt P08631)"
  phosphorylation enrichment: 1.28
- sequence.input: "NTFEKYWPFFQ [GATM_Y103_YF]"
  subject.of.test: "Hck (UniProt P08631)"
  phosphorylation enrichment: 1.42
- sequence.input: "PTYENYANSTQ [SLC12A3_Y70_H69N]"
  subject.of.test: "Hck (UniProt P08631)"
  phosphorylation enrichment: 2.12
- sequence.input: "GLQDEYDFKCK [STAT1_Y170_D165G]"
  subject.of.test: "Hck (UniProt P08631)"
  phosphorylation enrichment: 0.597
- sequence.input: "VYYGSYSCPYG [NKAP_Y104_R106C]"
  subject.of.test: "Hck (UniProt P08631)"
  phosphorylation enrichment: 4.99
- sequence.input: "IIQRAYRRHLL [SCN1A_Y1926]"
  subject.of.test: "Hck (UniProt P08631)"
  phosphorylation enrichment: 0.576
- sequence.input: "RLLRGYDQLAF [HLA-C_Y137_S140L_YF]"
  subject.of.test: "Hck (UniProt P08631)"
  phosphorylation enrichment: 0.554
- sequence.input: "MRNDLYQTPLH [NFKB1_Y582]"
  subject.of.test: "Hck (UniProt P08631)"
  phosphorylation enrichment: 4.21
- sequence.input: "EYGRRYGFSCQ [CCDC93_Y209_R213C]"
  subject.of.test: "Hck (UniProt P08631)"
  phosphorylation enrichment: 0.617
- sequence.input: "GHLYAYDWISI [BEST1_Y227]"
  subject.of.test: "Hck (UniProt P08631)"
  phosphorylation enrichment: 2.99
- sequence.input: "TNFSLYLRSLE [MTM1_Y71_R69S_YF]"
  subject.of.test: "Hck (UniProt P08631)"
  phosphorylation enrichment: 0.432
- sequence.input: "RHPREYQDLLN [DES_Y388_L385P]"
  subject.of.test: "Hck (UniProt P08631)"
  phosphorylation enrichment: 0.463
- sequence.input: "ITLKGYNLSNS [GNPTAB_Y728_K732N]"
  subject.of.test: "Hck (UniProt P08631)"
  phosphorylation enrichment: 0.477
